# system: T1, recombinant human NKp30 extracellular domain, his-tagged (human, UniProt O14931 19-135)
# T1 construct: BLI used human NKp30 bought from Abcam (his-tagged ECD); also called rh NKp30 ECD; human NKp30 (Abcam); not shown: his tag
# T1 sequence: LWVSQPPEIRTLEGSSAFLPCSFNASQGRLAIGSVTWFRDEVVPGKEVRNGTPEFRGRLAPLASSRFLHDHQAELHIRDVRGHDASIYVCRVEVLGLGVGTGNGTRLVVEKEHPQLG
# method summary: BLI as in Example 1
# Kd per entry
measurement type: Kd (nM)

[
  {
    "binder": "VHH1.8 (humanized) (VHH, expressed and measured by BLI 'as described in Experiment 1' (there: bispecific SEEDbody on anti-human Fc sensors)) VHH: EVQLVESGGGVVQPGGSLRLSCATSGFTLDDYTIGWVRQAPGKGLEGVSCFSPSDGTTYYADSVKGRFTISRDNAKNTLYLQMNSLRAEDTAVYYCAASFADGSSWCYDYWGQGTLVTVSS",
    "measurement type": "Kd",
    "scale unit": "nM",
    "reading": 1.13
  },
  {
    "binder": "VHH1.3 (humanized) (VHH, expressed and measured by BLI 'as described in Experiment 1' (there: bispecific SEEDbody on anti-human Fc sensors)) VHH: EVQLVESGGGVVQPGGSLRLSCAASGFTLDDYTIGWVRQAPGKEHEGVSCFSPSDGTTYYADSVKGRFTISRDNAKNTLYLQMNSLRAEDTAVYYCAASFADGSSWCYDYWGQGTLVTVSS",
    "measurement type": "Kd",
    "scale unit": "nM",
    "reading": 1.07
  }
]
